The next entries give measured CC50 for Vero cells.
quantity kind: CC50

>>> recorded_measurement("CCNC(=O)c1[nH]nc(-c2cc(Cl)c(O)cc2O)c1-c1ccc(OC)cc1")
"> 5 µM"
>>> recorded_measurement("CC[C@@H](C)Nc1cc(C(=O)N[C@H]2C[C@H]3CC[C@@H](C2)N3c2ccc(C(=O)C3CC3)cn2)c(C)cc1C(N)=O")
"> 5 µM"
>>> recorded_measurement("N#Cc1c(Oc2ccc(F)c(NC(=O)Cc3cccc(C(F)(F)F)c3)c2)ccc2nc(NC(=O)C3CC3)sc12")
"1.99 µM"
>>> recorded_measurement("O=C(/C=C\\n1cnc(-c2cc(C(F)(F)F)cc(C(F)(F)F)c2)n1)N1CC(F)(F)C1")
"> 5 µM"
>>> recorded_measurement("COC1(c2sc3c(N4CCOCC4)nc(-c4cnc(N)nc4)nc3c2C)COC1")
"> 5 µM"
>>> recorded_measurement("C#Cc1cccc(Nc2ncnc3cc(OCCOC)c(OCCO)cc23)c1.Cl")
"> 5 µM"
>>> recorded_measurement("COc1cccc(-c2cc(F)ccc2[C@H]2Cc3nc(N)nc(C)c3C(=O)N2)n1")
"4.31 µM"
>>> recorded_measurement("COc1ccc(-c2cc3c(C)nc(N)nc3n([C@H]3CC[C@H](OCCO)CC3)c2=O)cn1")
"> 5 µM"

* * *

The next entries give measured CC50 for Vero cells.
quantity kind: CC50 (µM)

>>> recorded_measurement("Cc1cc(Nc2cc(N3CCN(C)CC3)nc(/C=C/c3ccccc3)n2)n[nH]1.O=C(O)C(O)C(O)C(=O)O [ENMD-2076 L-(+)-Tartaric acid]")
4.34
>>> recorded_measurement("c1cncc(CN2CCC(n3ncc4c(N5CCOCC5)nc(-c5ccc6[nH]ccc6c5)nc43)CC2)c1 [WAY-600]")
3.11

* * *

- assay name: in vitro
- test conditions: African green monkey, Vero cells
quantity kind: CC50 at 48 h (µM)

>>> recorded_measurement("Cn1c2ccccc2c2c3c(c4c5ccccc5n(CCC#N)c4c21)CNC3=O")
3.95
>>> recorded_measurement("CNC(=O)c1cc(Oc2ccc(NC(=O)Nc3ccc(Cl)c(C(F)(F)F)c3)c(F)c2)ccn1")
4.06
>>> recorded_measurement("CC(C)c1cc(-c2n[nH]c(=O)n2-c2ccc3c(ccn3C)c2)c(O)cc1O")
4.44
>>> recorded_measurement("COc1cc2ncnc(Nc3ccc(F)c(Cl)c3)c2cc1NC(=O)/C=C/CN1CCCCC1")
4.88

* * *

Measured CC50 at 48 h, listed per entry.
- assay name: in vitro
- test conditions: African green monkey
quantity kind: CC50 at 48 h

>>> recorded_measurement("O=C1c2ccc(Nc3ccc(F)cc3F)cc2CCc2ccc(OC[C@H](O)CO)cc21 [Skepinone-L]")
"2140 nM"
>>> recorded_measurement("O=C(/C=C\\n1cnc(-c2cc(C(F)(F)F)cc(C(F)(F)F)c2)n1)NNc1cnccn1")
"1580 nM"
>>> recorded_measurement("COc1cccc2cc(-c3nc([C@H]4CC[C@H](C(=O)O)CC4)n4ncnc(N)c34)[nH]c12")
"> 5000 nM"
>>> recorded_measurement("Cc1c(CN2CCN(C(=O)[C@H](C)O)CC2)sc2c(N3CCOCC3)nc(-c3cnc(N)nc3)nc12")
"3000 nM"
>>> recorded_measurement("CCNC(=O)c1noc(-c2cc(C(C)C)c(O)cc2O)c1-c1ccc(CN2CCOCC2)cc1")
"> 5000 nM"
>>> recorded_measurement("Cc1csc(-c2nnc(Nc3ccc(Oc4ncccc4-c4ccnc(N)n4)cc3)c3ccccc23)c1")
"3690 nM"
>>> recorded_measurement("COC1=C2C[C@@H](C)C[C@H](OC)[C@H](O)[C@@H](C)/C=C(\\C)[C@H](OC(N)=O)[C@@H](OC)/C=C\\C=C(/C)C(=O)NC(=CC1=O)C2=O")
"> 5000 nM"

The reported numbers originate from paper PMC9144521.
